molecular target: σ receptor (Rattus norvegicus, UniProt Q9R0C9); construct: can be performed with particulate membranes prepared using a modification of the method described in Pasternak et al; tissue Rockland (Gilbertsville, Pa.); host or cells: rat brain minus cerebellum, crude particulate membranes; test: σ receptor radio-receptor binding assay; settings: 24 individual compounds, Table 10
Sequence (Q9R0C9 whole entry): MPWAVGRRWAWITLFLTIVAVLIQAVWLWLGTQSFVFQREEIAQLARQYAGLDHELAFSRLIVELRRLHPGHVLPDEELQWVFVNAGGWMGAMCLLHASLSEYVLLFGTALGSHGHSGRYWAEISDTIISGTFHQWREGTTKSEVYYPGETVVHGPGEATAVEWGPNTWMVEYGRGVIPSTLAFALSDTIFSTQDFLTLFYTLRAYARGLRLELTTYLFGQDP
A collection of compounds and their measured pIC50
Field pIC50 (float): negative decimal logarithm of the concentration in molar.

In the examples that follow, each entry is paired with its recorded pIC50.
Compound	Target Desc	Value Type	Meas Value
COc1ccc(C[C@H]2CN3C(=NC[C@H]3C3CCCCC3)N2CCCC2CCCCC2)cc1	σ receptor (Rattus norvegicus, UniProt Q9R0C9)	pIC50	6.23
CC(C)C[C@@H]1CN2C(=NC[C@@H]2C)N1CCCC1CCCCC1	σ receptor (Rattus norvegicus, UniProt Q9R0C9)	pIC50	6.28
COc1ccc(C[C@H]2CN3C(=NC[C@@H]3C)N2CCCC2CCCCC2)cc1	σ receptor (Rattus norvegicus, UniProt Q9R0C9)	pIC50	7.28
COc1ccc(C[C@H]2CN3C(=NC[C@@H]3C3CCCCC3)N2CCCC2CCCCC2)cc1	σ receptor (Rattus norvegicus, UniProt Q9R0C9)	pIC50	7.64

API: the following record is the query input.
Given the entry COc1ccc(CC2CN3C(=NCC3C)N2CCC23CC4CC(CC(C4)C2)C3)cc1 (centres unmarked) [compound 13] , what pIC50 was observed with σ receptor (Rattus norvegicus, UniProt Q9R0C9)?
6.63

The measurements presented in this section are drawn from patent US6359144B1.
